- experimental.system: Adenosine receptor A2b (Homo sapiens, UniProt P29275)
- Sequence (P29275 whole entry): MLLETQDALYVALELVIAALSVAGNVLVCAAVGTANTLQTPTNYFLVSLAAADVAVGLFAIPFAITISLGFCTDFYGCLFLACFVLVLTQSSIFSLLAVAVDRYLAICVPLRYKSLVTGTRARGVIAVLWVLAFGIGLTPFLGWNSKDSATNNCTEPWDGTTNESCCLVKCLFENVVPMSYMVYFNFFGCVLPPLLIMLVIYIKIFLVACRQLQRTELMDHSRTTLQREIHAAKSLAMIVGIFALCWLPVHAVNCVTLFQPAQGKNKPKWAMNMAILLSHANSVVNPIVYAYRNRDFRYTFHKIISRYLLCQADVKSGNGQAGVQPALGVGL
- test.description: Displacement of [3H]ZM-241385 from human recombinant adenosine A2B receptor expressed in HEK293 cells
Please respond with reported Ki for every item in the list.
Numbers only, in nM.

Observe how each entry below is paired with its result.
CCn1c(=O)c2[nH]c(-c3cn[nH]c3)nc2n(C)c1=O    120
CCCn1c(=O)c2[nH]c(-c3cnn(Cc4ccc[n+]([O-])c4)c3)nc2n(CC)c1=O    506
CCn1c(=O)n(CC(C)C)c(=O)c2[nH]c(-c3cnn(Cc4ccc(C(F)(F)F)nc4)c3)nc21    20

Dear colleague, could you please provide Ki for the compounds listed below?
1. CCn1c(=O)n(CC(C)C)c(=O)c2[nH]c(-c3cnn(Cc4cccc(F)c4)c3)nc21
2. CCCn1c(=O)c2[nH]c(-c3cnn(Cc4noc(-c5ccc(C(F)(F)F)cc5)n4)c3)nc2n(CC)c1=O
3. CCCCn1c(=O)c2[nH]c(-c3cnn(Cc4cccc(F)c4)c3)nc2n(C)c1=O
4. Cn1c(=O)n(CC2CC2)c(=O)c2[nH]c(-c3cnn(Cc4ccccc4)c3)nc21
5. CC(C)Cn1c(=O)c2[nH]c(-c3cn[nH]c3)nc2n(C)c1=O
6. CCn1c(=O)n(CC2CC2)c(=O)c2[nH]c(-c3cnn(Cc4cccc(C(F)(F)F)c4)c3)nc21

output:
31
24
26
11
42
22
